Each entry below carries its recorded Human hepatocytes - Editing %, 2500, rep 2.
- Tested on: human TTR gene
- experiment notes: Editing activity in human primary hepatocytes (gRNA + ABE8.8 mRNA co-transfection, NGS of PCR amplicons)
- Format: cell-based
- reported conditions: 2500 ng/RNA/mL, rep 2
Answer format: numeric, % implied, no suffix.

The following molecules have reported results that may help.
>>> measured_number("GA457: Human TTR guide RNA, spacer GCCAUCCUGCCAAGAAUGAG, gRNA SEQ ID NO: 11 (nucleic acid, chemistry not given here) guide: GCCATCCTGCCAAGAATGAGGTTTTAGAGCTAGAAATAGCAAGTTAAAATAAGGCTAGTCCGTTATCAACTTGAAAAAGTGGCACCGAGTCGGTGCTTTT")
31.31
>>> measured_number("GA460: Human/Cyno TTR guide RNA, spacer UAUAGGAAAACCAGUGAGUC, gRNA SEQ ID NO: 14 (nucleic acid, chemistry not given here) guide: TATAGGAAAACCAGTGAGTCGTTTTAGAGCTAGAAATAGCAAGTTAAAATAAGGCTAGTCCGTTATCAACTTGAAAAAGTGGCACCGAGTCGGTGCTTTT")
47.79
>>> measured_number("GA461: Human/Cyno TTR guide RNA, spacer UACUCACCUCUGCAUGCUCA, gRNA SEQ ID NO: 15 (nucleic acid, chemistry not given here) guide: TACTCACCTCTGCATGCTCAGTTTTAGAGCTAGAAATAGCAAGTTAAAATAAGGCTAGTCCGTTATCAACTTGAAAAAGTGGCACCGAGTCGGTGCTTTT")
39.43

# ---- query molecule ----
Notebook: GA459: Human TTR guide RNA, spacer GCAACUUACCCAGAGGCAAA, gRNA SEQ ID NO: 13 (nucleic acid, chemistry not given here) guide: GCAACTTACCCAGAGGCAAAGTTTTAGAGCTAGAAATAGCAAGTTAAAATAAGGCTAGTCCGTTATCAACTTGAAAAAGTGGCACCGAGTCGGTGCTTTT , Human hepatocytes - Editing %, 2500, rep 2 read as 8.69
